Assign relative viability to each entry below.
System: HCC-44
assay info: relative viability (nuclei count vs DMSO), 5 days (fraction); higher = more cells survive
measurement parameters: first compound 0.3162 µM

Fill blank: measured relative viability of the molecule CC(C)Oc1cc(Nc2nc(N[C@@H](C)c3ccc(F)cn3)ncc2Cl)n[nH]1 [AZ23] + N=C(N)NC(=N)NCCc1ccccc1 [Phenformin] (partner 250 µM) is ____.
0.245

Fill blank: measured relative viability of the molecule CC(C)Oc1cc(Nc2nc(N[C@@H](C)c3ccc(F)cn3)ncc2Cl)n[nH]1 [AZ23] + CS(=O)(=O)CCNCc1ccc(-c2ccc3ncnc(Nc4ccc(OCc5cccc(F)c5)c(Cl)c4)c3c2)o1 [Lapatinib] (partner 2 µM) is ____.
1.09

Fill blank: measured relative viability of the molecule CC(C)Oc1cc(Nc2nc(N[C@@H](C)c3ccc(F)cn3)ncc2Cl)n[nH]1 [AZ23] + O=C(c1cc(Cc2n[nH]c(=O)c3ccccc23)ccc1F)N1CCN(C(=O)C2CC2)CC1 [Olaparib] (partner 8 µM) is ____.
0.979

###

Assign relative viability to each entry below.
Test system: LC-2-ad
assay info: relative viability (nuclei count vs DMSO), 5 days (fraction); higher = more cells survive
measurement parameters: first compound 0.04 µM
Give only the figure.

Fill blank: measured relative viability of the molecule COc1cc(N2CCC(C(N)=O)CC2)ccc1Nc1nc(N)c(Cl)c(Nc2ccccc2S(=O)(=O)C(C)C)n1 [HG-5-88-01] + COc1cccc2cc(-c3nc([C@H]4CC[C@H](C(=O)O)CC4)n4ncnc(N)c34)[nH]c12 [OSI-027] (partner 0.5 µM) is ____.
0.819

Fill blank: measured relative viability of the molecule C[C@@H]1CN(CC(=O)Nc2ccc3c(c2)Cc2cccc(-c4cc(=O)cc(N5CCOCC5)o4)c2S3)C[C@H](C)O1 + CC1(C)CCC(c2ccc(Cl)cc2)=C(CN2CCN(c3ccc(C(=O)NS(=O)(=O)c4ccc(N[C@H](CCN5CCOCC5)CSc5ccccc5)c(S(=O)(=O)C(F)(F)F)c4)cc3)CC2)C1 [Navitoclax] (partner 0.5 µM) is ____.
0.587

Fill blank: measured relative viability of the molecule Clc1ccc(Nc2nnc(Cc3ccncc3)c3ccccc23)cc1 [Vatalanib] + CS(=O)(=O)CCNCc1ccc(-c2ccc3ncnc(Nc4ccc(OCc5cccc(F)c5)c(Cl)c4)c3c2)o1 [Lapatinib] (partner 2 µM) is ____.
0.977

Fill blank: measured relative viability of the molecule C[C@@H]1CN(CC(=O)Nc2ccc3c(c2)Cc2cccc(-c4cc(=O)cc(N5CCOCC5)o4)c2S3)C[C@H](C)O1 + COc1cccc2cc(-c3nc([C@H]4CC[C@H](C(=O)O)CC4)n4ncnc(N)c34)[nH]c12 [OSI-027] (partner 0.5 µM) is ____.
0.984

Fill blank: measured relative viability of the molecule COc1cc(N2CCC(C(N)=O)CC2)ccc1Nc1nc(N)c(Cl)c(Nc2ccccc2S(=O)(=O)C(C)C)n1 [HG-5-88-01] + CS(=O)(=O)N1CCN(Cc2cc3nc(-c4cccc5[nH]ncc45)nc(N4CCOCC4)c3s2)CC1 [Pictilisib] (partner 1 µM) is ____.
0.429

Fill blank: measured relative viability of the molecule C[C@@H]1CN(CC(=O)Nc2ccc3c(c2)Cc2cccc(-c4cc(=O)cc(N5CCOCC5)o4)c2S3)C[C@H](C)O1 + CC(=O)c1c(C)c2cnc(Nc3ccc(N4CCNCC4)cn3)nc2n(C2CCCC2)c1=O [Palbociclib] (partner 0.5 µM) is ____.
0.493

Fill blank: measured relative viability of the molecule C[C@@H]1CN(CC(=O)Nc2ccc3c(c2)Cc2cccc(-c4cc(=O)cc(N5CCOCC5)o4)c2S3)C[C@H](C)O1 + CCNC(=O)c1noc(-c2cc(C(C)C)c(O)cc2O)c1-c1ccc(CN2CCOCC2)cc1 [Luminespib] (partner 0.01 µM) is ____.
0.986

Fill blank: measured relative viability of the molecule Clc1ccc(Nc2nnc(Cc3ccncc3)c3ccccc23)cc1 [Vatalanib] + CC(C)C[C@H](NC(=O)[C@H](Cc1ccccc1)NC(=O)c1cnccn1)B(O)O [Bortezomib] (partner 0.002 µM) is ____.
0.987

###

Assign relative viability to each entry below.
Test system: HCC-827
assay info: relative viability (nuclei count vs DMSO), 5 days (fraction); higher = more cells survive
measurement parameters: first compound 0.4 µM

Fill blank: measured relative viability of the compound COc1cc(N2CCC(C(N)=O)CC2)ccc1Nc1nc(N)c(Cl)c(Nc2ccccc2S(=O)(=O)C(C)C)n1 [HG-5-88-01] + COc1cc2c(Oc3ccc(NC(=O)C4(C(=O)Nc5ccc(F)cc5)CC4)cc3F)ccnc2cc1OCCCN1CCOCC1 [Foretinib] (partner 0.25 µM) is ____.
1.05

Fill blank: measured relative viability of the compound C[C@@H]1CN(CC(=O)Nc2ccc3c(c2)Cc2cccc(-c4cc(=O)cc(N5CCOCC5)o4)c2S3)C[C@H](C)O1 + CC(=O)Nc1cccc(-n2c(=O)n(C3CC3)c(=O)c3c(Nc4ccc(I)cc4F)n(C)c(=O)c(C)c32)c1 [Trametinib] (partner 0.02 µM) is ____.
0.491

Fill blank: measured relative viability of the compound Clc1ccc(Nc2nnc(Cc3ccncc3)c3ccccc23)cc1 [Vatalanib] + CC1(C)CCC(c2ccc(Cl)cc2)=C(CN2CCN(c3ccc(C(=O)NS(=O)(=O)c4ccc(N[C@H](CCN5CCOCC5)CSc5ccccc5)c(S(=O)(=O)C(F)(F)F)c4)cc3)CC2)C1 [Navitoclax] (partner 0.5 µM) is ____.
1.06

Fill blank: measured relative viability of the compound COc1cc(N2CCC(C(N)=O)CC2)ccc1Nc1nc(N)c(Cl)c(Nc2ccccc2S(=O)(=O)C(C)C)n1 [HG-5-88-01] + O=C(CCCCCCC(=O)Nc1ccccc1)NO [Vorinostat] (partner 1 µM) is ____.
0.87

###

System: SW 900
assay info: relative viability (nuclei count vs DMSO), 5 days (fraction); higher = more cells survive
measurement parameters: first compound 4 µM
Assign relative viability to each entry below.
Give only the figure.

Fill blank: measured relative viability of the compound Clc1ccc(Nc2nnc(Cc3ccncc3)c3ccccc23)cc1 [Vatalanib] + O=C(CCCCCCC(=O)Nc1ccccc1)NO [Vorinostat] (partner 1 µM) is ____.
0.591

Fill blank: measured relative viability of the compound COc1cc(N2CCC(C(N)=O)CC2)ccc1Nc1nc(N)c(Cl)c(Nc2ccccc2S(=O)(=O)C(C)C)n1 [HG-5-88-01] + CCNC(=O)c1noc(-c2cc(C(C)C)c(O)cc2O)c1-c1ccc(CN2CCOCC2)cc1 [Luminespib] (partner 0.01 µM) is ____.
0.186

Fill blank: measured relative viability of the compound Clc1ccc(Nc2nnc(Cc3ccncc3)c3ccccc23)cc1 [Vatalanib] + Cc1cc(Nc2cc(N3CCN(C)CC3)nc(Sc3ccc(NC(=O)C4CC4)cc3)n2)n[nH]1 [Tozasertib] (partner 0.1 µM) is ____.
0.572

Fill blank: measured relative viability of the compound COc1cc(N2CCC(C(N)=O)CC2)ccc1Nc1nc(N)c(Cl)c(Nc2ccccc2S(=O)(=O)C(C)C)n1 [HG-5-88-01] + O=C(c1cc(Cc2n[nH]c(=O)c3ccccc23)ccc1F)N1CCN(C(=O)C2CC2)CC1 [Olaparib] (partner 8 µM) is ____.
0.631

###

Test system: EPLC-272H
assay info: relative viability (nuclei count vs DMSO), 5 days (fraction); higher = more cells survive
measurement parameters: first compound 0.1265 µM
outcome measure: relative viability
Give only the figure.

Fill blank: measured relative viability of the compound COc1cc(N2CCC(C(N)=O)CC2)ccc1Nc1nc(N)c(Cl)c(Nc2ccccc2S(=O)(=O)C(C)C)n1 [HG-5-88-01] + CC(C)C[C@H](NC(=O)[C@H](Cc1ccccc1)NC(=O)c1cnccn1)B(O)O [Bortezomib] (partner 0.002 µM) is ____.
0.941

Fill blank: measured relative viability of the compound Clc1ccc(Nc2nnc(Cc3ccncc3)c3ccccc23)cc1 [Vatalanib] + CC1(C)CCC(c2ccc(Cl)cc2)=C(CN2CCN(c3ccc(C(=O)NS(=O)(=O)c4ccc(N[C@H](CCN5CCOCC5)CSc5ccccc5)c(S(=O)(=O)C(F)(F)F)c4)cc3)CC2)C1 [Navitoclax] (partner 0.5 µM) is ____.
1.04

Fill blank: measured relative viability of the compound C[C@@H]1CN(CC(=O)Nc2ccc3c(c2)Cc2cccc(-c4cc(=O)cc(N5CCOCC5)o4)c2S3)C[C@H](C)O1 + C[C@]1(O)C[C@@H](c2nc(-c3ccc4ccc(-c5ccccc5)nc4c3)c3c(N)nccn32)C1 [Linsitinib] (partner 1 µM) is ____.
1.12

Fill blank: measured relative viability of the compound COc1cc(N2CCC(C(N)=O)CC2)ccc1Nc1nc(N)c(Cl)c(Nc2ccccc2S(=O)(=O)C(C)C)n1 [HG-5-88-01] + N=C(N)NC(=N)NCCc1ccccc1 [Phenformin] (partner 250 µM) is ____.
0.34

Fill blank: measured relative viability of the compound C[C@@H]1CN(CC(=O)Nc2ccc3c(c2)Cc2cccc(-c4cc(=O)cc(N5CCOCC5)o4)c2S3)C[C@H](C)O1 + CC(=O)Nc1cccc(-n2c(=O)n(C3CC3)c(=O)c3c(Nc4ccc(I)cc4F)n(C)c(=O)c(C)c32)c1 [Trametinib] (partner 0.02 µM) is ____.
0.289

Fill blank: measured relative viability of the compound Clc1ccc(Nc2nnc(Cc3ccncc3)c3ccccc23)cc1 [Vatalanib] + CC(=O)Nc1cccc(-n2c(=O)n(C3CC3)c(=O)c3c(Nc4ccc(I)cc4F)n(C)c(=O)c(C)c32)c1 [Trametinib] (partner 0.02 µM) is ____.
0.247

Fill blank: measured relative viability of the compound C[C@@H]1CN(CC(=O)Nc2ccc3c(c2)Cc2cccc(-c4cc(=O)cc(N5CCOCC5)o4)c2S3)C[C@H](C)O1 + COc1cc2c(Oc3ccc(NC(=O)C4(C(=O)Nc5ccc(F)cc5)CC4)cc3F)ccnc2cc1OCCCN1CCOCC1 [Foretinib] (partner 0.25 µM) is ____.
0.817

Fill blank: measured relative viability of the compound C[C@@H]1CN(CC(=O)Nc2ccc3c(c2)Cc2cccc(-c4cc(=O)cc(N5CCOCC5)o4)c2S3)C[C@H](C)O1 + CC(=O)c1c(C)c2cnc(Nc3ccc(N4CCNCC4)cn3)nc2n(C2CCCC2)c1=O [Palbociclib] (partner 0.5 µM) is ____.
0.388
